TEST_SYSTEM: RORgT (Homo sapiens)
Construct: Gal4 (fusion partner); expressed in transfected cells; host or cells: engineered Jurkat cells (Jurkat pEx/Gal/hRORγ CLBD/HYG pG5luc/blast)
Sequence (P51449 267-516): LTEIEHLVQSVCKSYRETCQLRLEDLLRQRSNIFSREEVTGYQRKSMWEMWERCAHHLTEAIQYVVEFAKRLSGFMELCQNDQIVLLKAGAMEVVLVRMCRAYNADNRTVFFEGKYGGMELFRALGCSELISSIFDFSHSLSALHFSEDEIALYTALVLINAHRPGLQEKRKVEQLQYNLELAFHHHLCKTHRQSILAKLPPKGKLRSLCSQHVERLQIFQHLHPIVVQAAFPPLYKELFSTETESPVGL
PROTOCOL_NOTES: RORgT Gal4 Luciferase Reporter Gene Assay
Type: cell-based
TEST_CONTEXT: engineered Jurkat cells overexpressing RORgT (LBD or full length) with Gal4 Luc reporter; 18 hours at 37° C.; 40 μM to 0.67 nM; read-out: RORg_GAL4 EC50
READOUT_LABEL: EC50 (nM)

For orientation, consider the following solved cases.
1) COc1ccc(Oc2c(Cl)cc(NC(=O)Cc3cnc[nH]3)cc2Cl)cc1C(C)C [Example 250]
500
2) CC(C)c1cc(Oc2c(Cl)ccc(C(=O)N3CCC4(CC3)CN(S(C)(=O)=O)C4)c2Cl)ccc1F [Example 132]
6.3
3) COc1ccc(Oc2c(Cl)cc(NC(=O)CCN3CCOCC3)cc2Cl)cc1C(C)C [Example 296]
1010
4) CC(C)(F)c1cc(F)cc(Oc2c(Cl)cc(NC(=O)CC3CCN(S(C)(=O)=O)CC3)cc2Cl)c1 [Example 333]
8.1
5) COc1ccc(Oc2c(Cl)cc(NC(=O)Cc3cccc(C(N)=O)c3)cc2Cl)cc1C(C)C [Example 5]
437

I: COc1ccc(Oc2c(Cl)cc(NC(=O)c3cccc(S(C)(=O)=O)c3)cc2Cl)cc1C(C)C [Example 289]
II: COc1ncc(Oc2c(Cl)ccc(C(=O)NCc3cccc(S(C)(=O)=O)c3)c2Cl)cc1C(C)C [Example 138]
[ask] Kindly identify which of I and II has the larger recorded EC50 value. Refer to your chosen entry by its label in the reply.
[reply] I
(I: 1480 nM, II: 225 nM)

I: COc1ccc(Oc2c(Cl)cc(N3CC(CO)OC3=O)cc2Cl)cc1C(C)C (stereo not shown) [Example 10]
II: CC(C)c1cc(F)cc(Oc2c(Cl)cc(NC(=O)CC3CCN(S(C)(=O)=O)CC3)cc2Cl)c1 [Example 258]
III: COc1ccc(Oc2c(Cl)ccc(C(=O)N3CCC(O)(c4ccccc4)CC3)c2Cl)cc1C(C)C [Example 180]
[ask] Hey, can you sort those compounds up there by EC50, smallest first? A complete answer lists every label in the requested sequence.
[reply] II, III, I
